Measurement Target: GST tagged Bcl w delta C29 protein (UniProt Q92843)
Assay Notes: competition assay; competitor: biotinylated Bim BH3 peptide
Observed Property: pIC50
Value format note: pIC50 is -log10 of concentration (mol/L); just state the number.

Given the binder Ac-IWIAQELRRIGDEFNA-NH2 [linear 16-mer Ac-…-NH2] , what is its reported pIC50?
8.60

Given the binder Ac-IRIAQELRRIGDEFNA-NH2 [Peptide Q (linear) Ac-…-NH2] , what is its reported pIC50?
7.77

Given the binder Ac-IWAAQELRRIGDEFNA-NH2 [Peptide I (linear) Ac-…-NH2] , what is its reported pIC50?
6.44

Given the binder Ac-IAIAQELRRIGDEFNA-NH2 [Peptide P (linear) Ac-…-NH2] , what is its reported pIC50?
7.38

Given the binder Ac-IWIAQELRRIGDEFNN-NH2 [Peptide U (linear) Ac-…-NH2] , what is its reported pIC50?
8.24

Given the binder Ac-IWIAQELRRIGDEANA-NH2 [Peptide L (linear) Ac-…-NH2] , what is its reported pIC50?
5.46

Given the binder Ac-IWIAQEARRIGDEFNA-NH2 [Peptide J (linear) Ac-…-NH2] , what is its reported pIC50?
5.43

Given the binder Ac-VQIARKLQAIADQFHR-NH2 [Bmf peptide Ac-…-NH2] , what is its reported pIC50?
9.60

Given the binder Ac-IWIAQELRRIGDEFAN-NH2 [Peptide R (linear) Ac-…-NH2] , what is its reported pIC50?
7.92

Given the binder Ac-REIGAQLRRMADDLNA-NH2 [Puma peptide Ac-…-NH2] , what is its reported pIC50?
7.28

Given the binder Ac-IWIAQQLRRIGDQFNA-NH2 [Peptide H (linear) Ac-…-NH2] , what is its reported pIC50?
8.48

Given the binder Ac-IWIAQELRRIGDEFAA-NH2 [Peptide S (linear) Ac-…-NH2] , what is its reported pIC50?
8.48

Given the binder Ac-IFIAQELRRIGDEFNA-NH2 [Peptide N (linear) Ac-…-NH2] , what is its reported pIC50?
7.96

Given the binder Ac-IWAAQEARRAGDEANA-NH2 [Peptide M (linear) Ac-…-NH2] , what is its reported pIC50?
4.19

Given the binder Ac-IWIAQELRRAGDEFNA-NH2 [Peptide K (linear) Ac-…-NH2] , what is its reported pIC50?
8.14

Where these numbers come from: patent US20070197430A1
